// data source = patent US20030068675

Target: T1, ZFP SBS#743 (synthetic)
T1 chain: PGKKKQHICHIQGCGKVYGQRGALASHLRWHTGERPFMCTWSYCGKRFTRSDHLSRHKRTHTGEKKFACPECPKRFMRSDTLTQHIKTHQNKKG
Test: EMSA
Details: tags: MBP fusion
quantity: Kd (nM)

| binder | reading |
| --- | --- |
| ACGGGGTTAT (dsDNA) DNA 1: ACGGGGTTAT DNA 2: ATAACCCCGT | 10 |
